tested_target: human CD40 on cells (human, UniProt P25942 21-277)
Sequence (P25942 21-277): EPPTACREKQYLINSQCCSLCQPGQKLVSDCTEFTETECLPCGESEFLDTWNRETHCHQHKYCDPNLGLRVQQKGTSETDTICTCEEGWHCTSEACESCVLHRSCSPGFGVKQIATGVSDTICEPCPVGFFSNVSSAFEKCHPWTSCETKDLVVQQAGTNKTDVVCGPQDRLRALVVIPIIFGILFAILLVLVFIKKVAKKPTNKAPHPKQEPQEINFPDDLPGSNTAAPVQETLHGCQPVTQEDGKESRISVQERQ
assay_text: cell-based or functional assay

binder	Allo DC/T IFN-γ EC50 (µg/mL)
Antibody clone B9 (antibody, human IgG1, lambda, V domains shown) VH: EVQLLESGGGLVQPGGSLRLSCAASGFTFSTYGMHWVRQAPGKGLEWLSYISGGSSYIFYADSVRGRFTISRDNSENALYLQMNSLRAEDTAVYYCARILRGGSGMDLWGQGTLVTVSS VL: QSVLTQPPSASGTPGQRVTISCTGSSSNIGAGYNVYWYQQLPGTAPKLLIYGNINRPSGVPDRFSGSKSGTSASLAISGLRSEDEADYYCAAWDGGLLGLVFGGGTKLTVLG	0.03
Antibody clone F6 (antibody, human IgG1, lambda, V domains shown) VH: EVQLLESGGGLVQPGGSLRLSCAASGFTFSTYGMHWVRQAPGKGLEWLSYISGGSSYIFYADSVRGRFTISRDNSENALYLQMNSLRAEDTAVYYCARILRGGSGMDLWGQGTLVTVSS VL: QSVLTQPPSASGTPGQRVTISCTGSSSNIGAGYDVYWYQQLPGTAPKLLIYRNINRPSGVPDRFSGSKSGTSASLAISGLRSEDEADYYCAAWDGSLLGLVFGGGTKLTVLG	0.15
Antibody clone A4 (antibody, human IgG1, lambda, V domains shown, Tested as purified antibody; full chains are assembled here from VH/VL plus these; also called A4 ANTI-CD40 ANTIBODY) VH: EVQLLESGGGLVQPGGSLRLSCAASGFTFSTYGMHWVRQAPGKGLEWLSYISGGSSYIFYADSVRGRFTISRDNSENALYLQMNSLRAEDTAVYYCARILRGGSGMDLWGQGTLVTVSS VL: QSVLTQPPSASGTPGQRVTISCTGSTSNIGAGYKVYWYQQLPGTAPKLLIYGNINRPSGVPDRFSGSKSGTSASLAISGLRSEDEADYYCAAWDDSLSGLVFGGGTKLTVLG	0.04

Values were extracted from patent US20140348836A1.
